target: full length active recombinant SYK enzyme (Homo sapiens); construct: full length active recombinant SYK enzyme (Millipore, CA); purchased Millipore; experiment: SYK tyrosine phosphorylation activity, LANCE TR-FRET kinase assay; assay type: biochemical; details: 1 nM SYK, 100 μM ATP, 1 hour at room temperature
parameter.measured: IC50

[[record]]
smiles_entry = "CS(=O)(=O)N1CCN(c2c(F)cc(Nc3ncc(C(N)=O)c(NC4CC4)n3)cc2F)CC1"
parameter_measured = "IC50"
result = "++ (1.0 uM<IC50<0.10 uM)"

[[record]]
smiles_entry = "CN(C)C(=O)C1CN(c2ccc(Nc3ncc(C(N)=O)c(NC4CC4)n3)cc2)C1"
parameter_measured = "IC50"
result = "++ (1.0 uM<IC50<0.10 uM)"

